Test system: Human immunodeficiency virus 1
Assay: Antiviral activity against wild type HIV1 infected in human MT4 cells assessed as protection against virus-induced cytopathogenicity after 5 days by MTT assay
Condition notes: Human immunodeficiency virus 1, MT4, 120 h
Overview of reported log10(EC50) across a group of compounds:
Readout label: log10(EC50) (log10 of the value in µg/mL)

>  <Record smiles>
COc1ccc2nc(NC(=O)Cc3cc(=O)oc4ccc5ccccc5c34)sc2c1

>  <log10(EC50)>
2.00

$$$$
>  <Record smiles>
Cc1cc(C)c2oc(=O)cc(CC(=O)Nc3nc4cc(Cl)c(F)cc4s3)c2c1

>  <log10(EC50)>
1.20

$$$$
>  <Record smiles>
O=C(Cc1cc(=O)oc2cc(O)ccc12)Nc1nc2ccc(Cl)cc2s1

>  <log10(EC50)>
0.85

$$$$
>  <Record smiles>
Cc1ccc2c(CC(=O)Nc3nc4cc(Cl)c(F)cc4s3)cc(=O)oc2c1

>  <log10(EC50)>
1.23

$$$$
>  <Record smiles>
Cc1cc(C)c2oc(=O)cc(CC(=O)Nc3nc4ccc([N+](=O)[O-])cc4s3)c2c1

>  <log10(EC50)>
2.00

$$$$
>  <Record smiles>
Cc1ccc2c(CC(=O)Nc3nc4ccc(F)cc4s3)cc(=O)oc2c1C

>  <log10(EC50)>
1.38

$$$$
>  <Record smiles>
Cc1ccc2c(CC(=O)Nc3nc4cc(Cl)c(F)cc4s3)cc(=O)oc2c1C

>  <log10(EC50)>
1.99

$$$$
>  <Record smiles>
Cc1ccc2c(CC(=O)Nc3nc4ccc([N+](=O)[O-])cc4s3)cc(=O)oc2c1

>  <log10(EC50)>
1.69

$$$$
>  <Record smiles>
Cc1ccc2oc(=O)cc(CC(=O)Nc3nc4ccc(F)cc4s3)c2c1

>  <log10(EC50)>
1.30

$$$$
>  <Record smiles>
Cc1cccc2c(CC(=O)Nc3nc4ccc(Cl)cc4s3)cc(=O)oc12

>  <log10(EC50)>
1.32

$$$$

###

Reported CC50 at 96 h values for the following compounds.
Assay: Cytotoxicity against human mock-infected MT4 cells after 4 days by MTT assay
Assay type: cell-based
Readout label: CC50 at 96 h

>  <Record smiles>
Cc1ccc2c(CC(=O)Nc3nc4ccc(F)cc4s3)cc(=O)oc2c1C

>  <Readout label>
CC50 at 96 h

>  <Reading>
> 24 µg/mL

$$$$
>  <Record smiles>
O=C(Cc1cc(=O)oc2cc(O)ccc12)Nc1nc2ccc(F)cc2s1

>  <Readout label>
CC50 at 96 h

>  <Reading>
> 21 µg/mL

$$$$
>  <Record smiles>
Cc1cccc2c(CC(=O)Nc3nc4ccc(Cl)cc4s3)cc(=O)oc12

>  <Readout label>
CC50 at 96 h

>  <Reading>
> 21 µg/mL

$$$$
>  <Record smiles>
Cc1ccc2c(CC(=O)Nc3nc4cc(Cl)c(F)cc4s3)cc(=O)oc2c1

>  <Readout label>
CC50 at 96 h

>  <Reading>
> 17 µg/mL

$$$$
>  <Record smiles>
Cc1ccc2oc(=O)cc(CC(=O)Nc3nc4ccc(Cl)cc4s3)c2c1

>  <Readout label>
CC50 at 96 h

>  <Reading>
> 27 µg/mL

$$$$
>  <Record smiles>
COc1ccc2nc(NC(=O)Cc3cc(=O)oc4ccc5ccccc5c34)sc2c1

>  <Readout label>
CC50 at 96 h

>  <Reading>
> 100 µg/mL

$$$$
>  <Record smiles>
Cc1cccc2c(CC(=O)Nc3nc4ccc(F)cc4s3)cc(=O)oc12

>  <Readout label>
CC50 at 96 h

>  <Reading>
> 100 µg/mL

$$$$
>  <Record smiles>
O=C(Cc1cc(=O)oc2cc(O)ccc12)Nc1nc2cc(Cl)c(F)cc2s1

>  <Readout label>
CC50 at 96 h

>  <Reading>
> 100 µg/mL

$$$$
>  <Record smiles>
Cc1ccc2oc(=O)cc(CC(=O)Nc3nc4cc(Cl)c(F)cc4s3)c2c1

>  <Readout label>
CC50 at 96 h

>  <Reading>
> 12 µg/mL

$$$$
>  <Record smiles>
Cc1ccc2c(CC(=O)Nc3nc4ccc([N+](=O)[O-])cc4s3)cc(=O)oc2c1

>  <Readout label>
CC50 at 96 h

>  <Reading>
> 49 µg/mL

$$$$
>  <Record smiles>
Cc1ccc2c(CC(=O)Nc3nc4ccc([N+](=O)[O-])cc4s3)cc(=O)oc2c1C

>  <Readout label>
CC50 at 96 h

>  <Reading>
> 9 µg/mL

$$$$
>  <Record smiles>
Cc1cccc2c(CC(=O)Nc3nc4ccc([N+](=O)[O-])cc4s3)cc(=O)oc12

>  <Readout label>
CC50 at 96 h

>  <Reading>
> 12 µg/mL

$$$$
>  <Record smiles>
Cc1ccc2oc(=O)cc(CC(=O)Nc3nc4ccc([N+](=O)[O-])cc4s3)c2c1

>  <Readout label>
CC50 at 96 h

>  <Reading>
> 32 µg/mL

$$$$
>  <Record smiles>
Cc1ccc2c(CC(=O)Nc3nc4ccc(Cl)cc4s3)cc(=O)oc2c1

>  <Readout label>
CC50 at 96 h

>  <Reading>
> 44 µg/mL

$$$$
>  <Record smiles>
Cc1ccc2c(CC(=O)Nc3nc4cc(Cl)c(F)cc4s3)cc(=O)oc2c1C

>  <Readout label>
CC50 at 96 h

>  <Reading>
> 97 µg/mL

$$$$
>  <Record smiles>
Cc1cc(C)c2oc(=O)cc(CC(=O)Nc3nc4ccc(F)cc4s3)c2c1

>  <Readout label>
CC50 at 96 h

>  <Reading>
> 38 µg/mL

$$$$
>  <Record smiles>
COc1ccc2nc(NC(=O)Cc3cc(=O)oc4c3ccc3ccccc34)sc2c1

>  <Readout label>
CC50 at 96 h

>  <Reading>
> 100 µg/mL

$$$$
